The measurements presented in this section are drawn from the kinase profiling compilation of Christmann-Franck et al. (2016).

TARGET ENTITY: CHEK1 (human) (UniProt O14757)
Sequence (O14757 whole entry, looked up): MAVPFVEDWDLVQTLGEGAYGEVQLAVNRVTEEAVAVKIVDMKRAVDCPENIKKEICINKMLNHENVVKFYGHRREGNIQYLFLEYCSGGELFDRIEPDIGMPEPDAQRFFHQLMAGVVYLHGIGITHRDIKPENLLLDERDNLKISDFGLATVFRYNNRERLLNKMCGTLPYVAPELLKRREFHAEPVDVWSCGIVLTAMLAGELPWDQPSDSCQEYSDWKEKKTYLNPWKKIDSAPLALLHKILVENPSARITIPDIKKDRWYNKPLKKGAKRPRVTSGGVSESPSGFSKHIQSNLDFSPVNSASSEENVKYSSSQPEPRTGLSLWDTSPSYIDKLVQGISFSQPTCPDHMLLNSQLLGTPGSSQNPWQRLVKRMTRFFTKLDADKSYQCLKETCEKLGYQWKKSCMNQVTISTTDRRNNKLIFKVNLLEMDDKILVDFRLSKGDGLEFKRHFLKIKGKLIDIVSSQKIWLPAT
ASSAY OVERVIEW: radiometric filter-binding kinase assay
STUDY CONDITIONS: compound 10.0 µM; ATP 100 µM
READOUT KIND: residual activity (%)

{"MOLECULAR STRING": "Nc1ncnc2c1cnn2-c1ccccc1", "TARGET ENTITY": "CHEK1 (human) (UniProt O14757)", "residual activity / %": 96}
{"MOLECULAR STRING": "O=C1c2ccccc2-c2n[nH]c3cccc1c23", "TARGET ENTITY": "CHEK1 (human) (UniProt O14757)", "residual activity / %": 39}
{"MOLECULAR STRING": "COC(=O)[C@@]1(OC)C[C@@H]2O[C@]1(C)n1c3ccccc3c3c4c(c5c6ccccc6n2c5c31)C(=O)N(C)C4", "TARGET ENTITY": "CHEK1 (human) (UniProt O14757)", "residual activity / %": 93}

a = O=C1Cc2c([nH]c3ccc(Br)cc23)-c2ccccc2N1
b = CC(C)(C)n1nc(-c2ccc(Cl)cc2)c2c(N)ncnc21
Of a and b , which shows the smaller residual activity value? Answer = label.
a

* * *

TARGET ENTITY: CSNK2A1 or CSNK2A2 (human) (UniProt P19784+P68400)
ASSAY OVERVIEW: radiometric filter-binding kinase assay
STUDY CONDITIONS: compound 10.0 µM; ATP 100 µM
READOUT KIND: residual activity (%)

Here are 10 compounds together with their reported answers.
{"MOLECULAR STRING": "CC(C)[C@H](CO)Nc1nc(Nc2cccc(Cl)c2)c2ncn(C(C)C)c2n1", "residual activity [%]": 95}
{"MOLECULAR STRING": "CC(C)(C)n1nc(-c2ccc(Cl)cc2)c2c(N)ncnc21", "residual activity [%]": 90}
{"MOLECULAR STRING": "O=C1Cc2c([nH]c3ccc([N+](=O)[O-])cc23)-c2ccccc2N1", "residual activity [%]": 67}
{"MOLECULAR STRING": "O=C1Nc2ccccc2/C1=C1\\Nc2ccccc2\\C1=N/O", "residual activity [%]": 82}
{"MOLECULAR STRING": "CC[C@@H](CO)Nc1nc(NCc2ccccc2)c2ncn(C(C)C)c2n1", "residual activity [%]": 101}
{"MOLECULAR STRING": "COC(=O)[C@@]1(OC)C[C@@H]2O[C@]1(C)n1c3ccccc3c3c4c(c5c6ccccc6n2c5c31)C(=O)N(C)C4", "residual activity [%]": 98}
{"MOLECULAR STRING": "O=C(O[C@@H]1Cc2c(O)cc(O)cc2O[C@@H]1c1cc(O)c(O)c(O)c1)c1cc(O)c(O)c(O)c1", "residual activity [%]": 105}
{"MOLECULAR STRING": "CN(C)S(=O)(=O)c1ccc2c(c1)/C(=C/c1cc3c([nH]1)CCCC3)C(=O)N2", "residual activity [%]": 93}
{"MOLECULAR STRING": "O=C1Cc2c([nH]c3ccc(Br)cc23)-c2ccccc2N1", "residual activity [%]": 99}
{"MOLECULAR STRING": "Nc1ncnc2c1cnn2-c1ccccc1", "residual activity [%]": 76}

I = Cc1ccc(-c2nn(C(C)(C)C)c3ncnc(N)c23)cc1
II = O=C1c2ccccc2-c2n[nH]c3cccc1c23
Parameter check: reported residual activity is higher for which label, I or II ? Answer = label.
I
(I: 96%, II: 63%)

* * *

TARGET ENTITY: MAPK12 (human) (UniProt P53778)
Sequence (P53778 whole entry, looked up): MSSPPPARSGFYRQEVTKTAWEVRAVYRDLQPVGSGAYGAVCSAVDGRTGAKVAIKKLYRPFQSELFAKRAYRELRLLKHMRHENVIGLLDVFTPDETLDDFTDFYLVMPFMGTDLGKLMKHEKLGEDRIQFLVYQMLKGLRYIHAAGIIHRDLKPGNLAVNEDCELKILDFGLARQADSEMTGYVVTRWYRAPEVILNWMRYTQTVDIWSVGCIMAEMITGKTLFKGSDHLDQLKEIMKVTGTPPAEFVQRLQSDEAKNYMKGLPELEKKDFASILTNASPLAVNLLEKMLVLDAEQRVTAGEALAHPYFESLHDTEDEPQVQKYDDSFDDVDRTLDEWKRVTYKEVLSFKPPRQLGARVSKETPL
ASSAY OVERVIEW: radiometric filter-binding kinase assay
STUDY CONDITIONS: compound 10.0 µM; ATP 100 µM
READOUT KIND: residual activity (%)

{"MOLECULAR STRING": "CC(C)(C)n1nc(-c2ccc(Cl)cc2)c2c(N)ncnc21", "U": "%", "RECORDED RESULT": 90}
{"MOLECULAR STRING": "O=C1c2ccccc2-c2n[nH]c3cccc1c23", "U": "%", "RECORDED RESULT": 82}
{"MOLECULAR STRING": "O=C1Cc2c([nH]c3ccc(Br)cc23)-c2ccccc2N1", "U": "%", "RECORDED RESULT": 87}
{"MOLECULAR STRING": "O=C1Nc2ccccc2/C1=C1\\Nc2ccccc2\\C1=N/O", "U": "%", "RECORDED RESULT": 74}
{"MOLECULAR STRING": "COC(=O)[C@@]1(OC)C[C@@H]2O[C@]1(C)n1c3ccccc3c3c4c(c5c6ccccc6n2c5c31)C(=O)N(C)C4", "U": "%", "RECORDED RESULT": 103}
{"MOLECULAR STRING": "O=C1Cc2c([nH]c3ccc([N+](=O)[O-])cc23)-c2ccccc2N1", "U": "%", "RECORDED RESULT": 55}
{"MOLECULAR STRING": "Nc1ncnc2c1cnn2-c1ccccc1", "U": "%", "RECORDED RESULT": 83}
{"MOLECULAR STRING": "O=C(O[C@@H]1Cc2c(O)cc(O)cc2O[C@@H]1c1cc(O)c(O)c(O)c1)c1cc(O)c(O)c(O)c1", "U": "%", "RECORDED RESULT": 85}
{"MOLECULAR STRING": "CC(C)[C@H](CO)Nc1nc(Nc2cccc(Cl)c2)c2ncn(C(C)C)c2n1", "U": "%", "RECORDED RESULT": 105}
{"MOLECULAR STRING": "CN(C)S(=O)(=O)c1ccc2c(c1)/C(=C/c1cc3c([nH]1)CCCC3)C(=O)N2", "U": "%", "RECORDED RESULT": 75}

* * *

TARGET ENTITY: MAPKAPK2 (human)
ASSAY OVERVIEW: radiometric filter-binding kinase assay
STUDY CONDITIONS: compound 10.0 µM; ATP 100 µM
READOUT KIND: residual activity (%)

Here are 5 compounds together with their reported answers.
{"MOLECULAR STRING": "CC[C@@H](CO)Nc1nc(NCc2ccccc2)c2ncn(C(C)C)c2n1", "TARGET ENTITY": "MAPKAPK2 (human)", "U": "%", "residual activity": 85}
{"MOLECULAR STRING": "CC(C)[C@H](CO)Nc1nc(Nc2cccc(Cl)c2)c2ncn(C(C)C)c2n1", "TARGET ENTITY": "MAPKAPK2 (human)", "U": "%", "residual activity": 97}
{"MOLECULAR STRING": "O=C1Cc2c([nH]c3ccc(Br)cc23)-c2ccccc2N1", "TARGET ENTITY": "MAPKAPK2 (human)", "U": "%", "residual activity": 110}
{"MOLECULAR STRING": "CC(C)(C)n1nc(-c2ccc(Cl)cc2)c2c(N)ncnc21", "TARGET ENTITY": "MAPKAPK2 (human)", "U": "%", "residual activity": 106}
{"MOLECULAR STRING": "O=C1Nc2ccccc2/C1=C1\\Nc2ccccc2\\C1=N/O", "TARGET ENTITY": "MAPKAPK2 (human)", "U": "%", "residual activity": 69}

P = Cc1ccc(-c2nn(C(C)(C)C)c3ncnc(N)c23)cc1
Q = O=C1Cc2c([nH]c3ccc([N+](=O)[O-])cc23)-c2ccccc2N1
Parameter check: reported residual activity is higher for which label, P or Q ? Answer = label.
P
(P: 96%, Q: 40%)

* * *

System: PRKACA or PRKACB (cow)
ASSAY OVERVIEW: radiometric filter-binding kinase assay
STUDY CONDITIONS: compound 10.0 µM; accession and sequence are those of the human protein
READOUT KIND: residual activity (%)

Here are 3 compounds together with their reported answers.
{"MOLECULAR STRING": "CN(C)S(=O)(=O)c1ccc2c(c1)/C(=C/c1cc3c([nH]1)CCCC3)C(=O)N2", "residual activity [%]": 73}
{"MOLECULAR STRING": "O=C(O[C@@H]1Cc2c(O)cc(O)cc2O[C@@H]1c1cc(O)c(O)c(O)c1)c1cc(O)c(O)c(O)c1", "residual activity [%]": 109}
{"MOLECULAR STRING": "O=C1Cc2c([nH]c3ccc([N+](=O)[O-])cc23)-c2ccccc2N1", "residual activity [%]": 79}

P = Cc1ccc(-c2nn(C(C)(C)C)c3ncnc(N)c23)cc1
Q = O=C1Cc2c([nH]c3ccc(Br)cc23)-c2ccccc2N1
Of P and Q , which shows the smaller residual activity value? Answer = label.
P
(P: 76%, Q: 109%)

* * *

System: CSNK1A1 (rat)
ASSAY OVERVIEW: radiometric filter-binding kinase assay
STUDY CONDITIONS: compound 10.0 µM; ATP 100 µM; accession and sequence are those of the human protein
READOUT KIND: residual activity (%)

Here are 2 compounds together with their reported answers.
{"MOLECULAR STRING": "CN(C)S(=O)(=O)c1ccc2c(c1)/C(=C/c1cc3c([nH]1)CCCC3)C(=O)N2", "TARGET ENTITY": "CSNK1A1 (rat)", "residual activity (%)": 66}
{"MOLECULAR STRING": "O=C(O[C@@H]1Cc2c(O)cc(O)cc2O[C@@H]1c1cc(O)c(O)c(O)c1)c1cc(O)c(O)c(O)c1", "TARGET ENTITY": "CSNK1A1 (rat)", "residual activity (%)": 105}

I = CC(C)(C)n1nc(-c2ccc(Cl)cc2)c2c(N)ncnc21
II = O=C1Cc2c([nH]c3ccc([N+](=O)[O-])cc23)-c2ccccc2N1
Parameter check: reported residual activity is higher for which label, I or II ? Answer = label.
II
